Molecular target: mTOR (Homo sapiens)
Construct: endogenous in cells; host or cells: Jurkat cells (ATCC TIB-152, clone E6-1), lysate
Assay: mTOR kinobeads assay (dot blot detection)
Assay type: binding
Conditions: Table 2, Jurkat cell lysate, read-out: Inhibition values (IC50) mTor
pIC50: −log10 of the molar value.
Record form. Attribute: pIC50. Fill in for each entry.

{"columns": ["compound", "readoutType", "reportedMeasurement"],
 "data": [
  ["C[C@H]1COCCN1c1nc(-c2ccc(NC(=O)NCCCO)cc2)cc(-c2cc(F)ccc2S(C)(=O)=O)n1", "pIC50", "6.00 to 7.00"],
  ["C[C@H]1COCCN1c1nc(-c2ccc(NC(=O)NC3CC3)cc2)cc(-c2cc(F)ccc2S(C)(=O)=O)n1", "pIC50", "6.00 to 7.00"],
  ["C[C@H]1COCCN1c1nc(-c2ccc(NC(=O)NC3CC3)cc2)cc(-c2cccnc2[S+](C)[O-])n1 (some centres unmarked)", "pIC50", "> 7.00"],
  ["O=C(NCC(F)F)Nc1ccc(-c2nccc(N3CC4CCC(C3)O4)n2)cc1", "pIC50", "6.00 to 7.00"]
]}

Count: 3. Required value per item: pIC50.
1. CCNC(=O)Nc1ccc(-c2cc(-c3ccccc3S(=O)(=O)NC)nc(N3CCOCC3)n2)cc1
2. CCNC(=O)Nc1ccc(-c2cc(-c3ccncc3)nc(N3CCOC[C@@H]3C)n2)cc1
3. C[C@H]1COCCN1c1ccnc(-c2ccc(NC(=O)NCC(F)F)cc2)n1

Data returned:
5.00 to 6.00
5.00 to 6.00
6.00 to 7.00

Count: 4. Required value per item: pIC50.
1. O=C(NCCF)Nc1ccc(-c2nccc(N3CC4CCC(C3)O4)n2)cc1
2. C[C@H]1COCCN1c1ccnc(-c2ccc(NC(=O)NC3CC3)cc2)n1
3. C[C@H]1COCCN1c1ccnc(-c2ccc(NC(=O)Nc3ccncc3)cc2)n1
4. O=C(Nc1ccc(-c2nccc(N3CC4CCC(C3)O4)n2)cc1)NC1CC1

Data returned:
["6.00 to 7.00", "6.00 to 7.00", "6.00 to 7.00", "6.00 to 7.00"]

Count: 6. Required value per item: pIC50.
1. CCCNC(=O)Nc1ccc(-c2ccnc(N3CCOCC3)n2)cc1
2. CCNC(=O)Nc1ccc(-c2cc(-c3ccccc3NS(C)(=O)=O)nc(N3CCOC[C@@H]3C)n2)cc1
3. CCNC(=O)Nc1ccc(-c2cc(-c3cc[nH]n3)nc(N3CCOC[C@@H]3C)n2)cc1
4. C[C@H]1COCCN1c1cc(-c2cc(F)ccc2S(C)(=O)=O)nc(-c2ccc(NC(=O)NC3CC3)cc2F)n1
5. CCNC(=O)Nc1ccc(-c2ccnc(N3CCOCC3)n2)cc1
6. C[C@H]1COCCN1c1nc(-c2ccc(NC(=O)NCC(N)=O)cc2)cc(-c2cc(F)ccc2S(C)(=O)=O)n1

Data returned:
["5.00 to 6.00", "5.00 to 6.00", "5.00 to 6.00", "5.00 to 6.00", "5.00 to 6.00", "5.00 to 6.00"]
